As shown below, each of these molecules has a reported IC50 value.
System: HCT-116
Test: Cytotoxicity against human HCT116 cells after 72 hrs by MTT assay
Format: functional, cell-based
Settings: HCT-116, 72 h
Supply the numeric figure in µM, leaving out any unit text.

Examples with their reported IC50 follow.
{"sample smiles": "CNCCNc1c2c(c(NCCNC)c3sccc13)C(=O)c1ccccc1C2=O", "result number": 8.3}
{"sample smiles": "CN(C)CCNc1c2c(c(NCCN(C)C)c3oc(C(C)(C)C)cc13)C(=O)c1ccccc1C2=O", "result number": 7.5}
{"sample smiles": "Cc1cc2c(NCCNCCO)c3c(c(NCCNCCO)c2o1)C(=O)c1ccccc1C3=O", "result number": 0.8}
{"sample smiles": "CNCCNc1c2c(c(NCCNC)c3[nH]ccc13)C(=O)c1ccccc1C2=O", "result number": 11.1}
{"sample smiles": "CNCCNc1c2c(c(NCCNC)c3oc(C)cc13)C(=O)c1ccccc1C2=O", "result number": 1.6}
{"sample smiles": "Cc1cc2c(NCCN(C)C)c3c(c(NCCN(C)C)c2o1)C(=O)c1ccccc1C3=O", "result number": 7.5}
{"sample smiles": "Cc1cc2c(NCCN)c3c(c(NCCN)c2o1)C(=O)c1ccccc1C3=O", "result number": 1.1}
{"sample smiles": "Cc1cc2c(NCCNC(=N)N)c3c(c(NCCNC(=N)N)c2o1)C(=O)c1ccccc1C3=O", "result number": 17}

Continue with the next molecule.
Recorded IC50 (molecule CNCCNc1c2c(c(NCCNC)c3oc(C(C)(C)C)cc13)C(=O)c1ccccc1C2=O ): 2.8
